# credit: ChEMBL document CHEMBL1151808

target_desc: Tryprostatin B synthase ftmPT1 (Aspergillus fumigatus) (UniProt Q4WAW7)
Sequence (Q4WAW7 whole entry): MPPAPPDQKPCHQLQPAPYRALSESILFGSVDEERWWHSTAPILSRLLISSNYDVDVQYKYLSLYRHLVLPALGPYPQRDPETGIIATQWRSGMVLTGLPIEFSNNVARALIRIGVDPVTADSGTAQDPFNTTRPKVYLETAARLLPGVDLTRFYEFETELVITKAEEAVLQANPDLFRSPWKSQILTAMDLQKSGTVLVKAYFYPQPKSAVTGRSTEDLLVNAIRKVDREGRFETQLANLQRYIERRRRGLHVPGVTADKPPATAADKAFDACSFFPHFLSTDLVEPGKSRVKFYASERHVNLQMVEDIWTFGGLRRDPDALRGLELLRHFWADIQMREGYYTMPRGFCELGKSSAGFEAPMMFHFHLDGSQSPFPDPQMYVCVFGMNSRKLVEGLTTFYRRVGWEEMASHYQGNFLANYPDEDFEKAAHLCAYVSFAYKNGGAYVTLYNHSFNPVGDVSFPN
procedure_details: Activity at 1.68 uM Aspergillus fumigatus FtmPT1 assessed as compound conversion rate at 1 mM after 16 hrs by HPLC analysis in presence of dimethylallyl diphosphate relative to L-tryptophan

compound: NC(Cc1c[nH]c2ccc(Br)cc12)C(=O)O (racemic)
target_desc: Tryprostatin B synthase ftmPT1 (Aspergillus fumigatus) (UniProt Q4WAW7)
Activity: < 0.4%

compound: O=C(O)Cc1c[nH]c2ccccc12
target_desc: Tryprostatin B synthase ftmPT1 (Aspergillus fumigatus) (UniProt Q4WAW7)
Activity: < 0.6%

compound: CN[C@@H](Cc1c[nH]c2ccccc12)C(=O)O
target_desc: Tryprostatin B synthase ftmPT1 (Aspergillus fumigatus) (UniProt Q4WAW7)
Activity: 29.4%

compound: NC(Cc1c[nH]c2cc(F)ccc12)C(=O)O (racemic)
target_desc: Tryprostatin B synthase ftmPT1 (Aspergillus fumigatus) (UniProt Q4WAW7)
Activity: 55.5%

compound: NCCc1c[nH]c2ccccc12
target_desc: Tryprostatin B synthase ftmPT1 (Aspergillus fumigatus) (UniProt Q4WAW7)
Activity: < 1.1%

compound: Cc1ccc2c(CC(N)C(=O)O)c[nH]c2c1 (racemic)
target_desc: Tryprostatin B synthase ftmPT1 (Aspergillus fumigatus) (UniProt Q4WAW7)
Activity: 96%

compound: CC(N)(Cc1c[nH]c2ccccc12)C(=O)O (racemic)
target_desc: Tryprostatin B synthase ftmPT1 (Aspergillus fumigatus) (UniProt Q4WAW7)
Activity: 1%

compound: Cc1ccc2[nH]cc(CC(N)C(=O)O)c2c1 (racemic)
target_desc: Tryprostatin B synthase ftmPT1 (Aspergillus fumigatus) (UniProt Q4WAW7)
Activity: 10.3%

compound: Cn1cc(CC(N)C(=O)O)c2ccccc21 (racemic)
target_desc: Tryprostatin B synthase ftmPT1 (Aspergillus fumigatus) (UniProt Q4WAW7)
Activity: < 0.3%

compound: Cc1cccc2[nH]cc(CC(N)C(=O)O)c12 (racemic)
target_desc: Tryprostatin B synthase ftmPT1 (Aspergillus fumigatus) (UniProt Q4WAW7)
Activity: 19.4%

compound: Cc1cccc2c(CC(N)C(=O)O)c[nH]c12 (racemic)
target_desc: Tryprostatin B synthase ftmPT1 (Aspergillus fumigatus) (UniProt Q4WAW7)
Activity: 64.1%

compound: N[C@@H](Cc1c[nH]c2ccc(O)cc12)C(=O)O
target_desc: Tryprostatin B synthase ftmPT1 (Aspergillus fumigatus) (UniProt Q4WAW7)
Activity: < 0.3%

compound: N[C@H](CC(=O)O)Cc1c[nH]c2ccccc12
target_desc: Tryprostatin B synthase ftmPT1 (Aspergillus fumigatus) (UniProt Q4WAW7)
Activity: < 1.1%

compound: N[C@@H](Cc1c[nH]c2ccc(F)cc12)C(=O)O
target_desc: Tryprostatin B synthase ftmPT1 (Aspergillus fumigatus) (UniProt Q4WAW7)
Activity: 4.3%

====

target_desc: UniProt:Q4WAW7
procedure_details: Activity at 1.68 uM Aspergillus fumigatus FtmPT1 assessed as compound conversion rate at 1 mM after 2 hrs by HPLC analysis in presence of dimethylallyl diphosphate relative to L-tryptophan

molecule: CC(N)(Cc1c[nH]c2ccccc12)C(=O)O (racemic)
Activity: < 2.3%
//
molecule: N[C@@H](Cc1c[nH]c2ccc(O)cc12)C(=O)O
Activity: < 1.3%
//
molecule: Cc1cccc2[nH]cc(CC(N)C(=O)O)c12 (racemic)
Activity: 16%
//
molecule: O=C(O)Cc1c[nH]c2ccccc12
Activity: < 2.8%
//
molecule: CN[C@@H](Cc1c[nH]c2ccccc12)C(=O)O
Activity: < 3.7%
//
molecule: NCCc1c[nH]c2ccccc12
Activity: < 5.3%
//
molecule: N[C@H](CC(=O)O)Cc1c[nH]c2ccccc12
Activity: < 5.5%

====

Tested on: Aspergillus fumigatus
procedure_details: Activity at 1.62 uM Aspergillus fumigatus CdpNPT assessed as compound conversion rate at 1 mM after 16 hrs by HPLC analysis in presence of dimethylallyl diphosphate relative to L-tryptophan

compound: NC(Cc1c[nH]c2cc(F)ccc12)C(=O)O (racemic)
unit_string: %
result_operator: =
Activity: 13.8
//
compound: Cn1cc(CC(N)C(=O)O)c2ccccc21 (racemic)
unit_string: %
result_operator: <
Activity: 0.3
//
compound: Cc1cccc2c(CC(N)C(=O)O)c[nH]c12 (racemic)
unit_string: %
result_operator: =
Activity: 37.9
//
compound: Cc1ccc2c(CC(N)C(=O)O)c[nH]c2c1 (racemic)
unit_string: %
result_operator: =
Activity: 13.5
//
compound: NC(Cc1c[nH]c2ccc(Br)cc12)C(=O)O (racemic)
unit_string: %
result_operator: <
Activity: 0.4
//
compound: NCCc1c[nH]c2ccccc12
unit_string: %
result_operator: <
Activity: 1

====

Property: Activity; scope: individual compounds
target_desc: Tryprostatin B synthase ftmPT1 (Aspergillus fumigatus)
procedure_details: Activity at 1.68 uM Aspergillus fumigatus FtmPT1 assessed as compound conversion rate at 1 mM after 2 hrs by HPLC analysis in presence of dimethylallyl diphosphate relative to L-tryptophan

compound: Cc1ccc2c(CC(N)C(=O)O)c[nH]c2c1 (racemic)
Activity: 148%

compound: NC(Cc1c[nH]c2cc(F)ccc12)C(=O)O (racemic)
Activity: 55.1%

compound: Cc1ccc2[nH]cc(CC(N)C(=O)O)c2c1 (racemic)
Activity: < 2.4%

compound: Cn1cc(CC(N)C(=O)O)c2ccccc21 (racemic)
Activity: < 1.7%

compound: Cc1cccc2c(CC(N)C(=O)O)c[nH]c12 (racemic)
Activity: 76.4%

compound: NC(Cc1c[nH]c2ccc(Br)cc12)C(=O)O (racemic)
Activity: < 1.9%

compound: N[C@@H](Cc1c[nH]c2ccc(F)cc12)C(=O)O
Activity: < 1.2%

====

System: Aspergillus fumigatus
procedure_details: Activity at 1.62 uM Aspergillus fumigatus CdpNPT assessed as compound conversion rate at 1 mM after 16 hrs by HPLC analysis in presence of dimethylallyl diphosphate relative to L-tryptophan

molecule: CC(N)(Cc1c[nH]c2ccccc12)C(=O)O (racemic)
Activity: 24.5%
--
molecule: Cc1cccc2[nH]cc(CC(N)C(=O)O)c12 (racemic)
Activity: 61.4%
--
molecule: O=C(O)Cc1c[nH]c2ccccc12
Activity: 45.3%
--
molecule: CN[C@@H](Cc1c[nH]c2ccccc12)C(=O)O
Activity: 114%
--
molecule: N[C@H](CC(=O)O)Cc1c[nH]c2ccccc12
Activity: < 1.1%
--
molecule: N[C@@H](Cc1c[nH]c2ccc(F)cc12)C(=O)O
Activity: 1.9%
--
molecule: N[C@@H](Cc1c[nH]c2ccc(O)cc12)C(=O)O
Activity: < 0.3%
--
molecule: Cc1ccc2[nH]cc(CC(N)C(=O)O)c2c1 (racemic)
Activity: 20.2%

====

Tested on: Aspergillus fumigatus
procedure_details: Activity at 1.62 uM Aspergillus fumigatus CdpNPT assessed as compound conversion rate at 1 mM after 2 hrs by HPLC analysis in presence of dimethylallyl diphosphate relative to L-tryptophan

molecule: O=C(O)Cc1c[nH]c2ccccc12
target_desc: Aspergillus fumigatus
Activity: < 1.7%
//
molecule: Cn1cc(CC(N)C(=O)O)c2ccccc21 (racemic)
target_desc: Aspergillus fumigatus
Activity: < 1.1%
//
molecule: NC(Cc1c[nH]c2cc(F)ccc12)C(=O)O (racemic)
target_desc: Aspergillus fumigatus
Activity: 17.7%
//
molecule: NCCc1c[nH]c2ccccc12
target_desc: Aspergillus fumigatus
Activity: < 3.3%
//
molecule: N[C@H](CC(=O)O)Cc1c[nH]c2ccccc12
target_desc: Aspergillus fumigatus
Activity: < 3.4%
//
molecule: N[C@@H](Cc1c[nH]c2ccc(O)cc12)C(=O)O
target_desc: Aspergillus fumigatus
Activity: < 0.8%
//
molecule: N[C@@H](Cc1c[nH]c2ccc(F)cc12)C(=O)O
target_desc: Aspergillus fumigatus
Activity: < 0.7%
//
molecule: Cc1cccc2[nH]cc(CC(N)C(=O)O)c12 (racemic)
target_desc: Aspergillus fumigatus
Activity: 72.6%
//
molecule: Cc1cccc2c(CC(N)C(=O)O)c[nH]c12 (racemic)
target_desc: Aspergillus fumigatus
Activity: 50.6%
//
molecule: NC(Cc1c[nH]c2ccc(Br)cc12)C(=O)O (racemic)
target_desc: Aspergillus fumigatus
Activity: < 1.2%
//
molecule: Cc1ccc2[nH]cc(CC(N)C(=O)O)c2c1 (racemic)
target_desc: Aspergillus fumigatus
Activity: < 1.5%
//
molecule: Cc1ccc2c(CC(N)C(=O)O)c[nH]c2c1 (racemic)
target_desc: Aspergillus fumigatus
Activity: < 0.9%
//
molecule: CC(N)(Cc1c[nH]c2ccccc12)C(=O)O (racemic)
target_desc: Aspergillus fumigatus
Activity: 25%
//
molecule: CN[C@@H](Cc1c[nH]c2ccccc12)C(=O)O
target_desc: Aspergillus fumigatus
Activity: 126%
